# measured_on: NF-kB p50 (NFKB1) (UniProt P19838 P19838:1-433)
# Sequence (P19838 1-433, one chain of several): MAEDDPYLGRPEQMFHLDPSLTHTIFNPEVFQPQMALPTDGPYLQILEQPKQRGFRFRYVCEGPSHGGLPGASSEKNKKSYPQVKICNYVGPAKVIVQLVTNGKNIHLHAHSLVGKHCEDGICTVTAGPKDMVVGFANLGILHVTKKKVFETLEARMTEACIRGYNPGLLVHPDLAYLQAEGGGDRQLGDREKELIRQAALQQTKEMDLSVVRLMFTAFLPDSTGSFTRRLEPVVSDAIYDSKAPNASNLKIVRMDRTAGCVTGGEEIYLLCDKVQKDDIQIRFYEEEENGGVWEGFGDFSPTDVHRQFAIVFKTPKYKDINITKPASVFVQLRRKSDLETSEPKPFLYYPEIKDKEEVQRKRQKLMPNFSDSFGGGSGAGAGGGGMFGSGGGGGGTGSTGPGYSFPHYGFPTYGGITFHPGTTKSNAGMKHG
# assay_name: competition
# condition: protein: extract; tags: TPA and CI-stimulated Jurkat nuclear extract, Active Motif
pIC50: −log10 of the molar value.
value_kind: pIC50

[[record]]
binder = "PSODN16 (dsDNA, PS only within consensus gggatttccc, both strands) DNA 1: CGCAGGGATTTCCCGCG DNA 2: CGCGGGAAATCCCTGCG"
value_kind = "pIC50"
value = 9.10

[[record]]
binder = "Control decoy (conventional NF-kB decoy) (dsDNA, PS all bonds, both strands) DNA 1: CCTTGAAGGGATTTCCCTCC DNA 2: GGAGGGAAATCCCTTCAAGG"
value_kind = "pIC50"
value = 8.07

[[record]]
binder = "PSODN7 (dsDNA, PS only within consensus gggatttccc, both strands) DNA 1: CGCGGGATTTCCCAGC DNA 2: GCTGGGAAATCCCGCG"
value_kind = "pIC50"
value = 8.99

[[record]]
binder = "PSODN9 (dsDNA, PS only within consensus gggatttccc, both strands) DNA 1: GGAGGGATTTCCCGGG DNA 2: CCCGGGAAATCCCTCC"
value_kind = "pIC50"
value = 9.04

